target: AGO2 T357M (Homo sapiens, UniProt Q9UKV8 1-859, T357M;S387D;S824A;S828D;S831D;S834A); assay: RNA Bind-n-Seq (nitrocellulose filter binding and sequencing); miR-122 guide loaded in AGO2; 60 min incubation; 30 mM Tris pH 8.0, 100 mM potassium acetate, 2 mM magnesium acetate, 0.5 mM TCEP, 0.005% NP-40, 0.01 mg/ml yeast tRNA; 3 nM AGO2-miR-122, 100 nM RNA library; 60; high values mean tight binding; conditions: protein: recombinant; tags: His6 (N-terminal, pFastBac HTA)
Sequence (Q9UKV8 whole entry T357M/S387D/S824A/S828D/S831D/S834A): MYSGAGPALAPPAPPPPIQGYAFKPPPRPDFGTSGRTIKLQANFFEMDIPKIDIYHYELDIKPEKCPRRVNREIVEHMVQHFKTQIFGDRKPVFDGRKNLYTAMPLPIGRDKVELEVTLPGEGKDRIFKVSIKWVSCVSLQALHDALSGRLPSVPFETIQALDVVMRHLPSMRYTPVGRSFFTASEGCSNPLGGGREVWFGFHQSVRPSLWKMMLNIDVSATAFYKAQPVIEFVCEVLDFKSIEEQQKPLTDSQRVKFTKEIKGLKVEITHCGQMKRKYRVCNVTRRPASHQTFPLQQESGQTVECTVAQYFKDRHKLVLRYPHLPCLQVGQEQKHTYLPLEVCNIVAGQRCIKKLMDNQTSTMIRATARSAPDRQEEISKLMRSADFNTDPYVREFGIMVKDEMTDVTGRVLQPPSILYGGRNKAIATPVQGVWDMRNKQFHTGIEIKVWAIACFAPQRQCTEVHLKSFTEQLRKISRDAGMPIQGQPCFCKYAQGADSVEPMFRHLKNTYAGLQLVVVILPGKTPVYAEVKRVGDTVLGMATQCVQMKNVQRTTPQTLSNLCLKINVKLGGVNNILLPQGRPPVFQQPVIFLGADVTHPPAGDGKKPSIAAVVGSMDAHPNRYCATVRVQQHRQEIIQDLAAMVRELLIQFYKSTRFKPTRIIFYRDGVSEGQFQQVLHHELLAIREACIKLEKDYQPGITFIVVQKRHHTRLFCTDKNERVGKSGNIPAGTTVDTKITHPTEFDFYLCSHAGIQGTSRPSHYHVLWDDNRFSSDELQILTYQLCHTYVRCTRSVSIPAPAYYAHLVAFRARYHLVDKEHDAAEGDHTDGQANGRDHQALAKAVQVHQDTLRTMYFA
measured endpoint: binding signal

Known binding signal results, listed for orientation:
ACATCTCG (ssRNA, constant regions annealed to DNA blockers; guide miR-122 5' phosphate) RNA 1: GAGUUCUACAGUCCGACGAUCCCAACACAUCUCGCACCUGGAAUUCUCGGGUGCCAA RNA 2: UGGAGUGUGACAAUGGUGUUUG DNA 1: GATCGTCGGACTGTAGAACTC DNA 2: TTGGCACCCGAGAATTCCA
0.37 fold enrichment over input
GCATTCTA (ssRNA, constant regions annealed to DNA blockers; guide miR-122 5' phosphate) RNA 1: GAGUUCUACAGUCCGACGAUCCCAACGCAUUCUACACCUGGAAUUCUCGGGUGCCAA RNA 2: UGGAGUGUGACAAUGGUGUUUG DNA 1: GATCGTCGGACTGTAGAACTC DNA 2: TTGGCACCCGAGAATTCCA
0.63 fold enrichment over input
GCGCCTTA (ssRNA, constant regions annealed to DNA blockers; guide miR-122 5' phosphate) RNA 1: GAGUUCUACAGUCCGACGAUCCCAACGCGCCUUACACCUGGAAUUCUCGGGUGCCAA RNA 2: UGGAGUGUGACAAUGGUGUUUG DNA 1: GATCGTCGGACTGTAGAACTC DNA 2: TTGGCACCCGAGAATTCCA
0.763 fold enrichment over input

Q: Look at this binder and give its reported binding signal. ACACCTTA (ssRNA, constant regions annealed to DNA blockers; guide miR-122 5' phosphate) RNA 1: GAGUUCUACAGUCCGACGAUCCCAACACACCUUACACCUGGAAUUCUCGGGUGCCAA RNA 2: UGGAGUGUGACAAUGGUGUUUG DNA 1: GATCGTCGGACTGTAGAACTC DNA 2: TTGGCACCCGAGAATTCCA
A: 0.721 fold enrichment over input
